- testSystem: MDM2_(H.sapiens) SWIB domain (Homo sapiens (human))
- testMethodNotes: fluorescence polarisation; displacement: complex of MDM2 (0.2-2 μM) and FITC-p53TAD_(human)^15–26 (15 nM) displaced by increasing unlabeled p53TAD peptide or p53TAD^full-length; KD calculated from IC50 (Nikolovska-Coleska et al. 2004); 20 mM sodium phosphate pH 7.4, 150 mM NaCl, 1 mM TCEP
Where no end group is shown, it is not given here.
So I've got a bunch of binders here, and I need their pKd values.
Formally, pKd is defined as -log10 of the concentration c, with c in mol/L.

Given the binder Ac-SQDSFKELWDQLP [Maylandia zebra p53TADP1 p53TAD^15–27] , what is its reported pKd?
6.57

Reported pKd, binder Ac-SQESFQELWKMMC [Anguilla anguilla (European eel) p53TADP1 p53TAD^15–27] : ____
7.89

Recorded pKd of Ac-SQDSFRELWESVV [Channa argus p53TADP1 p53TAD^15–27] , please.
5.96

Give its pKd value. Item: Ac-SQGTFDEIWASNF [Clupea harengus (Atlantic herring) p53TADP1 p53TAD^15–27]
5.90

Query: pKd; subject: Ac-SQESFQELWNMVI [Lepisosteus oculatus (spotted gar) p53TAD^15–27]
6.92

pKd lookup needed for Ac-SQEFAELWEKNL [Danio rerio (zebrafish) p53TADP2 p53TAD^15–27] , thanks.
5.36

Using the record for Ac-SQGSFQQLWETNM [Oncorhynchus kisutch p53TADP1b p53TAD^15–27] , report its pKd.
5.29
